# Test summary: xn = mol fraction of the nth substance listed, in the solute-free solvent
# Condition: 323.15 K; x2 = 0.6
Lab note: compare solubility (g/100 g solution) against 9. Equal or greater, write satisfied. Smaller, write not satisfied.

O=C(O)c1ccc(C(=O)O)o1 + C1COCCO1 + O : not satisfied
COC1=CC(=O)CC(C)C12Oc1c(Cl)c(OC)cc(OC)c1C2=O (stereo unspecified) + CC(=O)CC(C)C + CC(C)O : not satisfied
CCCCOc1ccc(C(=O)CCN2CCCCC2)cc1.Cl + CCO + CCCCCC : satisfied
O=C(O)c1ccc(C(=O)O)o1 + O + COCCOC : not satisfied
O=C(O)c1ccc(C(=O)O)o1 + O + COCCOCCOC : not satisfied

Prompt line: Is solubility (g/100 g solution) at least 9? Consider O=C(O)C1CSCN1 (stereo unspecified) + O + CC#N
Response line: not satisfied

Prompt line: Is solubility (g/100 g solution) at least 9? Consider COC1=CC(=O)CC(C)C12Oc1c(Cl)c(OC)cc(OC)c1C2=O (stereo unspecified) + CC(C)=O + CC(C)O
Response line: not satisfied
